Data provenance is paper PMC9564337.

Procedure Text: in vivo
Measurement Parameters: female, NMRI nude (nu/nu), mouse, total radioactivity, Uptake (%ID/g) blood
Measure Name: tissue uptake at 10 min (%ID/g)
Give the quantity in %ID/g, number only.

Inquiry: Please report the recorded tissue uptake at 10 min for CC[C@H](C)[C@H](NC(=O)[C@@H](NC(=O)[C@@H]1CCCN1C(=O)[C@H](CCCNC(=N)N)NC(=O)[C@H](CCCNC(N)=NC(=O)NCCCCNC(=O)CN1CCN(CC(=O)O)CCN(CC(=O)O)CCN(CC(=O)O)CC1)NC)C(C)(C)c1ccc(O)cc1)C(=O)N[C@@H](CC(C)C)C(=O)O [[^68Ga]56, metal not drawn] .
Reply text: 3.1

---

Procedure Text: in vivo
Measurement Parameters: female, NMRI nude (nu/nu), mouse, total radioactivity, Uptake (%ID/g) muscle
Measure Name: tissue uptake at 0.75 h (%ID/g)
Give the quantity in %ID/g, number only.

Inquiry: Please report the recorded tissue uptake at 0.75 h for CN[C@@H](CCCNC(N)=NC(=O)NCCCCNC(=O)CN1CCN(CC(=O)O)CCN(CC(=O)O)CCN(CC(=O)O)CC1)C(=O)N[C@@H](CCCNC(=N)N)C(=O)N1CCC[C@H]1C(=O)N[C@@H](Cc1ccc(O)cc1)C(=O)N[C@H](C(=O)N[C@@H](CC(C)C)C(=O)O)C(C)(C)C [[^68Ga]21, metal not drawn] .
Reply text: 0.21

---

Procedure Text: physchem
Format: physicochemical
Measurement Parameters: pH 7.4
Procedure: The distribution coefficients logD7.4 of the radiotracers [^68Ga]21, [^68Ga]33, [^68Ga]37 and [^68Ga]56 were determined by adding a solution of the tracer in PBS (100 μL, ca. 0.20–0.34 MBq) to a mixture of n-octanol (500 μL) and PBS (pH 7.4) (400 μL) in a 2-mL HPLC vial (Agilent, article number 5182-0714) with a screw cap equipped with a septum (Agilent, article number 5182-0717). After vortexing the mixture for 2 min, two 100 μL aliquots of the upper phase (n-octanol) were taken. […]
Entries and their logD

Compound	logD
CN[C@@H](CCCNC(N)=NC(=O)NCCOCCOCCNC(=O)[C@@H](Cc1ccc(-c2ccc(F)cc2)cc1)NC(=O)CCCCCNC(=O)CN1CCN(CC(=O)O)CCN(CC(=O)O)CCN(CC(=O)O)CC1)C(=O)N[C@@H](CCCNC(=N)N)C(=O)N1CCC[C@H]1C(=O)N[C@@H](Cc1ccc(O)cc1)C(=O)N[C@H](C(=O)N[C@@H](CC(C)C)C(=O)O)C(C)(C)C [[^68Ga]33, metal not drawn]	-2.48
CC[C@H](C)[C@H](NC(=O)[C@@H](NC(=O)[C@@H]1CCCN1C(=O)[C@H](CCCNC(=N)N)NC(=O)[C@H](CCCNC(N)=NC(=O)NCCCCNC(=O)CN1CCN(CC(=O)O)CCN(CC(=O)O)CCN(CC(=O)O)CC1)NC)C(C)(C)c1ccc(O)cc1)C(=O)N[C@@H](CC(C)C)C(=O)O [[^68Ga]56, metal not drawn]	-3.06
CN[C@@H](CCCNC(N)=NC(=O)NCCOCCOCCNC(=O)[C@@H](Cc1ccc(-c2ccc(F)cc2)cc1)NC(=O)CN1CCN(CC(=O)O)CCN(CC(=O)O)CCN(CC(=O)O)CC1)C(=O)N[C@@H](CCCNC(=N)N)C(=O)N1CCC[C@H]1C(=O)N[C@@H](Cc1ccc(O)cc1)C(=O)N[C@H](C(=O)N[C@@H](CC(C)C)C(=O)O)C(C)(C)C [[^68Ga]37, metal not drawn]	-2.59

Inquiry: Please report the recorded logD for CN[C@@H](CCCNC(N)=NC(=O)NCCCCNC(=O)CN1CCN(CC(=O)O)CCN(CC(=O)O)CCN(CC(=O)O)CC1)C(=O)N[C@@H](CCCNC(=N)N)C(=O)N1CCC[C@H]1C(=O)N[C@@H](Cc1ccc(O)cc1)C(=O)N[C@H](C(=O)N[C@@H](CC(C)C)C(=O)O)C(C)(C)C [[^68Ga]21, metal not drawn] .
Reply text: -3.87

---

Procedure Text: in vivo
Measurement Parameters: female, NMRI nude (nu/nu), mouse, total radioactivity, Uptake (%ID/g) liver
Entries and their tissue uptake at 0.75 h

Reference set (2 entries):
Compound	tissue uptake at 0.75 h
CN[C@@H](CCCNC(N)=NC(=O)NCCCCNC(=O)CN1CCN(CC(=O)O)CCN(CC(=O)O)CCN(CC(=O)O)CC1)C(=O)N[C@@H](CCCNC(=N)N)C(=O)N1CCC[C@H]1C(=O)N[C@@H](Cc1ccc(O)cc1)C(=O)N[C@H](C(=O)N[C@@H](CC(C)C)C(=O)O)C(C)(C)C [[^68Ga]21, metal not drawn]	0.59 %ID/g
CN[C@@H](CCCNC(N)=NC(=O)NCCOCCOCCNC(=O)[C@@H](Cc1ccc(-c2ccc(F)cc2)cc1)NC(=O)CN1CCN(CC(=O)O)CCN(CC(=O)O)CCN(CC(=O)O)CC1)C(=O)N[C@@H](CCCNC(=N)N)C(=O)N1CCC[C@H]1C(=O)N[C@@H](Cc1ccc(O)cc1)C(=O)N[C@H](C(=O)N[C@@H](CC(C)C)C(=O)O)C(C)(C)C [[^68Ga]37, metal not drawn]	4.1 %ID/g

Let's switch to this compound now.
Inquiry: Please report the recorded tissue uptake at 0.75 h for CN[C@@H](CCCNC(N)=NC(=O)NCCOCCOCCNC(=O)[C@@H](Cc1ccc(-c2ccc(F)cc2)cc1)NC(=O)CCCCCNC(=O)CN1CCN(CC(=O)O)CCN(CC(=O)O)CCN(CC(=O)O)CC1)C(=O)N[C@@H](CCCNC(=N)N)C(=O)N1CCC[C@H]1C(=O)N[C@@H](Cc1ccc(O)cc1)C(=O)N[C@H](C(=O)N[C@@H](CC(C)C)C(=O)O)C(C)(C)C [[^68Ga]33, metal not drawn] .
Reply text: 16 %ID/g

---

Procedure Text: in vivo
Measurement Parameters: female, NMRI nude (nu/nu), mouse, total radioactivity, Uptake (%ID/g) lung
Measure Name: tissue uptake at 10 min (%ID/g)
Give the quantity in %ID/g, number only.

Inquiry: Please report the recorded tissue uptake at 10 min for CC[C@H](C)[C@H](NC(=O)[C@@H](NC(=O)[C@@H]1CCCN1C(=O)[C@H](CCCNC(=N)N)NC(=O)[C@H](CCCNC(N)=NC(=O)NCCCCNC(=O)CN1CCN(CC(=O)O)CCN(CC(=O)O)CCN(CC(=O)O)CC1)NC)C(C)(C)c1ccc(O)cc1)C(=O)N[C@@H](CC(C)C)C(=O)O [[^68Ga]56, metal not drawn] .
Reply text: 2.4

---

Procedure Text: in vitro
Format: in vitro ADME
Measurement Parameters: human, plasma, pH 7.4, % Intact Peptide in Plasma after 1 h
Residues, ends and D or L forms follow the SMILES beside them.
Measure Name: remaining at 1 h, 100 µM (%)
Give the quantity in %, number only.

Molecule	Unit Text	remaining at 1 h, 100 µM
CN[C@@H](CCCNC(=N)N)C(=O)N[C@@H](CCCNC(=N)N)C(=O)N1CCC[C@H]1C(=O)N[C@@H](Cc1ccc(O)cc1)C(=O)N[C@@](C)(CC(C)C)C(=O)N[C@@H](CC(C)C)C(=O)O [Compound 44] (HELM PEPTIDE1{[meR].R.P.Y.[CC(C)C[C@](C)(N[*:1])C(=O)[*:2]].L}$$$$V2.0)	%	94

Let's switch to this molecule now.
Inquiry: Please report the recorded remaining at 1 h, 100 µM for CC[C@H](C)[C@H](NC(=O)[C@H](Cc1ccc(O)cc1)NC(=O)[C@@H]1CCCN1C(=O)[C@H](CCCNC(=N)NC(=O)NCCCCN)NC(=O)[C@H](CCCNC(=N)N)NC)C(=O)N[C@@H](CC(C)C)C(=O)O [Compound 9] .
Reply text: 99

---

Procedure Text: in vivo
Measurement Parameters: female, NMRI nude (nu/nu), mouse, total radioactivity, Uptake (%ID/g) muscle
Measure Name: tissue uptake at 25 min
Could you give the number and then its unit, please?

Inquiry: Please report the recorded tissue uptake at 25 min for CC[C@H](C)[C@H](NC(=O)[C@@H](NC(=O)[C@@H]1CCCN1C(=O)[C@H](CCCNC(=N)N)NC(=O)[C@H](CCCNC(N)=NC(=O)NCCCCNC(=O)CN1CCN(CC(=O)O)CCN(CC(=O)O)CCN(CC(=O)O)CC1)NC)C(C)(C)c1ccc(O)cc1)C(=O)N[C@@H](CC(C)C)C(=O)O [[^68Ga]56, metal not drawn] .
Reply text: 0.57 %ID/g

---

Subject Of Test: hNTS1R (Homo sapiens, UniProt P30989)
Construct: intact HT-29 colon carcinoma cells expressing the hNTS1R; host or cells: HT-29 human colon carcinoma cells
Sequence (P30989 whole entry): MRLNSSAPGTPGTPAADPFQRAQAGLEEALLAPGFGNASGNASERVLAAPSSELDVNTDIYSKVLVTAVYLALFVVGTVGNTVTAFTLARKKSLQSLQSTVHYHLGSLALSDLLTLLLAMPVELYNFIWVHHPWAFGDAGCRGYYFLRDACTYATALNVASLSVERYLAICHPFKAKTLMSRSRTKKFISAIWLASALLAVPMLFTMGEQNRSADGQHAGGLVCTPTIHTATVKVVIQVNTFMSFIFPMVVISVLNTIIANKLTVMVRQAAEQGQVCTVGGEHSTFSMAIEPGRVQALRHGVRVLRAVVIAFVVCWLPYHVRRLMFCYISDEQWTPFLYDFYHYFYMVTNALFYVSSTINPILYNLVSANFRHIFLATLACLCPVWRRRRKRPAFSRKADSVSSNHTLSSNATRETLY
Procedure Text: radioligand competition binding with [3H]UR-MK300 at intact HT-29 cells
Measurement Parameters: [3H]UR-MK300 c = 1 nM, HT-29 cells, 23 °C; read-out: Ki [nM] NTS1R (converted)
Description: Specific binding data (obtained by subtracting unspecific binding from total binding) were normalized (100% = specifically bound radioligand in the absence of competitor) and plotted over log(concentration of competitor) followed by a four-parameter logistic fit (SigmaPlot 12.5, Systat Software, San José, CA, USA) (note: in the case of 40, the lower curve plateau of the sigmoidal fit was constrained to >0). […]
Measure Name: Ki (nM)
Give the quantity in nM, number only.

Compound	Subject Of Test	Ki [nM]
CN[C@@H](CCCNC(N)=NC(=O)NCCOCCOCCNC(=O)[C@@H](Cc1ccc(-c2ccc(F)cc2)cc1)NC(=O)CN1CCN(CC(=O)O)CCN(CC(=O)O)CCN(CC(=O)O)CC1)C(=O)N[C@@H](CCCNC(=N)N)C(=O)N1CCC[C@H]1C(=O)N[C@@H](Cc1ccc(O)cc1)C(=O)N[C@H](C(=O)N[C@@H](CC(C)C)C(=O)O)C(C)(C)C	hNTS1R (Homo sapiens, UniProt P30989)	14
CC(C)C[C@H](NC(=O)[C@@H](NC(=O)[C@H](Cc1ccc(O)cc1)NC(=O)[C@@H]1CCCN1C(=O)[C@H](CCCNC(=N)NC(=O)NCCCCN)N(C)C(=O)[C@@H](N)CCCNC(=N)N)C(C)(C)C)C(=O)O	hNTS1R (Homo sapiens, UniProt P30989)	13
CN[C@@H](CCCNC(N)=NC(=O)NCCCCNC(=O)CN1CCN(CC(=O)O)CCN(CC(=O)O)CCN(CC(=O)O)CC1)C(=O)N[C@@H](CCCNC(=N)N)C(=O)N1CCC[C@H]1C(=O)N[C@@H](Cc1ccc(O)cc1)C(=O)N[C@H](C(=O)N[C@@H](CC(C)C)C(=O)O)C(C)(C)C [Compound 21]	hNTS1R (Homo sapiens, UniProt P30989)	9.9

Let's switch to this compound now.
Inquiry: Please report the recorded Ki for CC(C)C[C@H](NC(=O)[C@@H](NC(=O)[C@H](Cc1ccc(O)cc1)NC(=O)[C@@H]1CCCN1C(=O)[C@H](CCCNC(N)=NC(=O)NCCCCNC(=O)CN1CCN(CC(=O)O)CCN(CC(=O)O)CCN(CC(=O)O)CC1)N(C)C(=O)[C@@H](N)CCCNC(=N)N)C(C)(C)C)C(=O)O .
Reply text: 20
